Tested on: human maximum recommended daily dose, FDA database
Assay: DSSTox (FDAMDD) FDA Maximum (Recommended) Daily Dose Database
Details: TherapeuticCategory: antipsychotic; dopamine receptor antagonist; seratonin receptor antagonist; hits give low values
Assay Readout: maximum recommended daily dose (mmol/kg-bw/day)
The response must contain the number and no unit.

Return the recorded maximum recommended daily dose (mmol/kg-bw/day) value; entry: `O=C1Cc2cc(CCN3CCN(c4nsc5ccccc45)CC3)c(Cl)cc2N1`
0.00647

----------
# maximum recommended daily dose (mmol/kg-bw/day) listing for each entry below
Test system: human maximum recommended daily dose, FDA database
Experiment: DSSTox (FDAMDD) FDA Maximum (Recommended) Daily Dose Database
Settings: TherapeuticCategory: antibacterial; hits give low values
The response must contain the number and no unit.

Before answering, review these 3 worked examples.
CO[C@@]1(NC(=O)C2SC(=C(C(N)=O)C(=O)O)S2)C(=O)N2C(C(=O)O)=C(CSc3nnnn3C)CS[C@@H]21 (some centres undefined); 0.116
CCc1cc(C(N)=S)ccn1; 0.1
CO[C@H]1[C@@H](O)[C@H](N)[C@@H](O[C@H]2O[C@H]([C@H](C)N)CC[C@H]2N)[C@H](O)[C@@H]1N(C)C(=O)CN; 0.0164

Return the recorded maximum recommended daily dose (mmol/kg-bw/day) value; entry: `CN[C@@H]1[C@H](O[C@H]2[C@H](O[C@H]3[C@H](O)[C@@H](O)[C@H](N=C(N)N)[C@@H](O)[C@@H]3N=C(N)N)O[C@@H](C)[C@]2(O)CO)O[C@@H](CO)[C@H](O)[C@H]1O`
0.0286

----------
Tested on: human maximum recommended daily dose, FDA database
Experiment: DSSTox (FDAMDD) FDA Maximum (Recommended) Daily Dose Database
Conditions: TherapeuticCategory: antiobesity; hits give low values
Description: The Food and Drug Administration (FDA) Center for Drug Evaluation and Research, Office of Pharmaceutical Science, Informatics and Computational Safety Analysis Staff's Maximum Recommended Daily Dose (FDAMDD) database contains values for over 1200 pharmaceuticals listed in Martindale: The Extra Pharmacopoeia (1973, 1983, and 1993) and The Physicians' Desk Reference (1995 and 1999). […]
Assay Readout: maximum recommended daily dose (mmol/kg-bw/day)
The response must contain the number and no unit.

Return the recorded maximum recommended daily dose (mmol/kg-bw/day) value; entry: CCCCCCCCCCC[C@@H](C[C@@H]1OC(=O)[C@H]1CCCCCC)OC(=O)C(CC(C)C)NC=O (stereo partly specified)
0.0121

----------
System: human maximum recommended daily dose, FDA database
Experiment: DSSTox (FDAMDD) FDA Maximum (Recommended) Daily Dose Database
Details: TherapeuticCategory: fluid and nutrient replenisher; hits give low values
Assay Readout: maximum recommended daily dose (mmol/kg-bw/day)
The response must contain the number and no unit.

Return the recorded maximum recommended daily dose (mmol/kg-bw/day) value; entry: OC[C@H]1OC(O)[C@H](O)[C@@H](O)[C@@H]1O (stereo partly specified)
0.555

----------
Test system: human maximum recommended daily dose, FDA database
Assay: DSSTox (FDAMDD) FDA Maximum (Recommended) Daily Dose Database
Conditions: TherapeuticCategory: adrenergic; antihypotensive; hits give low values
# maximum recommended daily dose (mmol/kg-bw/day) listing for each entry below
The response must contain the number and no unit.

NC[C@H](O)c1ccc(O)c(O)c1; 0.000394

Alright, here's another molecule for you.
Return the recorded maximum recommended daily dose (mmol/kg-bw/day) value; entry: COc1ccc(OC)c(C(O)CNC(=O)CN)c1 (configuration not stated)
0.000983

----------
Test system: human maximum recommended daily dose, FDA database
Experiment: DSSTox (FDAMDD) FDA Maximum (Recommended) Daily Dose Database
Settings: TherapeuticCategory: narcotic analgesic; hits give low values
Assay Readout: maximum recommended daily dose (mmol/kg-bw/day)
The response must contain the number and no unit.

Before answering, review these 8 worked examples.
C[C@@]12CCCCC[C@@H](Cc3ccc(O)cc31)[C@@H]2N; 0.000681
CCC(=O)O[C@]1(c2ccccc2)CCN(C)C[C@@H]1C; 0.00191
CCOC(=O)[C@]1(c2ccccc2)CCC=C[C@H]1N(C)C; 0.0122
Oc1ccc2c(c1)[C@@]13CCCC[C@@]1(O)[C@@H](C2)N(CC1CCC1)CC3; 0.000815
COc1ccc2c3c1O[C@H]1C(=O)CC[C@@]4(O)[C@@H](C2)N(C)CC[C@]314; 0.0169
CCC(=O)C(CC(C)N(C)C)(c1ccccc1)c1ccccc1 (stereo not given); 0.00162
CCOC(=O)C1(c2ccccc2)CCN(C)CC1; 0.0606
CN1CC[C@]23c4c5ccc(O)c4O[C@H]2C(=O)CC[C@@]3(O)[C@H]1C5; 0.000498

Return the recorded maximum recommended daily dose (mmol/kg-bw/day) value; entry: `CCC(=O)O[C@](Cc1ccccc1)(c1ccccc1)[C@H](C)CN(C)C`
0.0191

Return the recorded maximum recommended daily dose (mmol/kg-bw/day) value; entry: `CN1CC[C@]23c4c5ccc(O)c4O[C@H]2[C@@H](O)C=C[C@H]3[C@H]1C5`
0.00585

----------
Tested on: human maximum recommended daily dose, FDA database
Assay: DSSTox (FDAMDD) FDA Maximum (Recommended) Daily Dose Database
Details: TherapeuticCategory: antiasthmatic; anti inflammatry; hits give low values
Assay Readout: maximum recommended daily dose (mmol/kg-bw/day)
The response must contain the number and no unit.

CC(c1cc2ccccc2s1)N(O)C(N)=O (configuration not stated); 0.169

Alright, here's another compound for you.
State maximum recommended daily dose (mmol/kg-bw/day) (human maximum recommended daily dose, FDA database) of `O=C(Cn1c(=O)sc2ccc(Cl)cc21)N1CCN(CCO)CC1` .
0.0141

----------
Tested on: human maximum recommended daily dose, FDA database
Test: DSSTox (FDAMDD) FDA Maximum (Recommended) Daily Dose Database
Settings: TherapeuticCategory: cholinesterase inhibitor; hits give low values
Assay Readout: maximum recommended daily dose (mmol/kg-bw/day)
The response must contain the number and no unit.

CCN(C)C(=O)Oc1cccc([C@H](C)N(C)C)c1; 0.000799
CC[N+](CC)(CCNC(=O)C(=O)NCC[N+](CC)(CC)Cc1ccccc1Cl)Cc1ccccc1Cl; 0.00274

Alright, here's another molecule for you.
Return the recorded maximum recommended daily dose (mmol/kg-bw/day) value; entry: `C[n+]1ccccc1/C=N/O`
0.193

----------
Test system: human maximum recommended daily dose, FDA database
Test: DSSTox (FDAMDD) FDA Maximum (Recommended) Daily Dose Database
Settings: TherapeuticCategory: antiandrogen; antineoplastic; hits give low values
Assay Readout: maximum recommended daily dose (mmol/kg-bw/day)
The response must contain the number and no unit.

Return the recorded maximum recommended daily dose (mmol/kg-bw/day) value; entry: `C[C@](O)(CS(=O)(=O)c1ccc(F)cc1)C(=O)Nc1ccc(C#N)c(C(F)(F)F)c1`
0.00194

----------
Test system: human maximum recommended daily dose, FDA database
Experiment: DSSTox (FDAMDD) FDA Maximum (Recommended) Daily Dose Database
Details: TherapeuticCategory: combination to form antibacterial; hits give low values
From the text: The Food and Drug Administration (FDA) Center for Drug Evaluation and Research, Office of Pharmaceutical Science, Informatics and Computational Safety Analysis Staff's Maximum Recommended Daily Dose (FDAMDD) database contains values for over 1200 pharmaceuticals listed in Martindale: The Extra Pharmacopoeia (1973, 1983, and 1993) and The Physicians' Desk Reference (1995 and 1999). […]
Assay Readout: maximum recommended daily dose (mmol/kg-bw/day)
The response must contain the number and no unit.

Return the recorded maximum recommended daily dose (mmol/kg-bw/day) value; entry: `CC1(C)[C@H](C(=O)O)N2C(=O)C[C@H]2S1(=O)=O`
0.286

----------
Tested on: human maximum recommended daily dose, FDA database
Assay: DSSTox (FDAMDD) FDA Maximum (Recommended) Daily Dose Database
Details: TherapeuticCategory: antipsychotic; hits give low values
Define the label as Met when maximum recommended daily dose (mmol/kg-bw/day) is strictly less than 0.01 and as Not met in all remaining cases.

O=C(CCCN1CC=C(n2c(=O)[nH]c3ccccc32)CC1)c1ccc(F)cc1; Met
O=C1CSC2(CCN(CCCN3c4ccccc4Sc4ccc(Cl)cc43)CC2)N1; Not met

Just wondering, is maximum recommended daily dose (mmol/kg-bw/day) of `CCCC(=O)c1ccc2c(c1)N(CCCN1CCN(C)CC1)c1ccccc1S2` below 0.01?
Met

Just wondering, is maximum recommended daily dose (mmol/kg-bw/day) of CSc1ccc2c(c1)N(CCC1CCCCN1C)c1ccccc1S2 (stereo unspecified) below 0.01?
Not met

Just wondering, is maximum recommended daily dose (mmol/kg-bw/day) of CN1CCCCC1CCN1c2ccccc2Sc2ccc(S(C)=O)cc21 (stereo unspecified) below 0.01?
Not met

Just wondering, is maximum recommended daily dose (mmol/kg-bw/day) of `CN1CCN(C2=Nc3ccccc3Sc3ccc(Cl)cc32)CC1` below 0.01?
Met

----------
System: human maximum recommended daily dose, FDA database
Assay: DSSTox (FDAMDD) FDA Maximum (Recommended) Daily Dose Database
Conditions: TherapeuticCategory: abortifacient; hits give low values
Text: The Food and Drug Administration (FDA) Center for Drug Evaluation and Research, Office of Pharmaceutical Science, Informatics and Computational Safety Analysis Staff's Maximum Recommended Daily Dose (FDAMDD) database contains values for over 1200 pharmaceuticals listed in Martindale: The Extra Pharmacopoeia (1973, 1983, and 1993) and The Physicians' Desk Reference (1995 and 1999). […]
Assay Readout: maximum recommended daily dose (mmol/kg-bw/day)

State maximum recommended daily dose (mmol/kg-bw/day) (human maximum recommended daily dose, FDA database) of `CC#C[C@]1(O)CC[C@H]2[C@@H]3CCC4=CC(=O)CCC4=C3[C@@H](c3ccc(N(C)C)cc3)C[C@@]21C` .
0.0233
